Recorded values, source PubChem BioAssay AID686979.

test: qHTS for Inhibitors of human tyrosyl-DNA phosphodiesterase 1 (TDP1): qHTS in cells in presence of CPT; details: chicken DT40 Tdp1-/-;hTDP1 cells + 20 nM CPT, ATP luminescence, 48 h; series mostly up to 46.2 µM; further: nearly all actives have a fitted effect of over 55% in size
Hit rate of the full screen: of about 420,000 compounds, about 50,000 (12%) were called active. Another 26% or so got no clear call; they are omitted. The call rests on the fitted dose curve; in most records, active means well fitted inhibition curve with a large enough effect; inconclusive means small, poorly fitted or top-dose-only effect; inactive means flat fitted curve, though single readings scatter. For the sample, actives were picked, then their nearest neighbours and some compounds at random.
Permitted responses: 1 (active), -1 (inactive)

Challenge: Called result for COc1ccc(NC(=O)CN2CCN(S(=O)(=O)c3ccc(F)cc3)CC2)cc1Cl
Response given: -1

Challenge: Let us now turn to COCCN1C=C2C(=O)C(C)(OC(=O)C3CCCC3)C(=O)C=C2C=C1c1ccsc1 (stereo not given)
Response given: -1

Challenge: And then Cc1cccc(C(=O)NNC(=O)c2cccc([N+](=O)[O-])c2)c1 , what is it?
Response given: -1

Read the next record carefully.
Challenge: Fill in: this test's call for CC(=O)Nc1ccc(S(=O)(=O)N2CCC(NC(=O)c3ccccc3)CC2)cc1 is ___
Response given: -1

* * *

assay: qHTS for Inhibitors of human tyrosyl-DNA phosphodiesterase 1 (TDP1): qHTS in cells in presence of CPT; conditions: chicken DT40 Tdp1-/-;hTDP1 cells + 20 nM CPT, ATP luminescence, 48 h; series mostly up to 46.2 µM; further: nearly all actives have a fitted effect of over 55% in size
Out of some 420,000 compounds screened, about 50,000 (12%) were called active. Another 26% or so got no clear call; they are omitted. Calls follow the shape of the dose curve; as a rule, active = well fitted inhibition curve with a large enough effect; inconclusive = small, poorly fitted or top-dose-only effect; inactive = flat fitted curve, though single readings scatter. The entries come from a sample that favours actives as a whole.
Thanks in advance; please answer with one of these: 1 for active, 0 for inactive

Example entries begin here.
Challenge: Given O=C(O)/C=C/c1cn(-c2ccccc2)nc1-c1cccs1 , state the outcome it received in this test.
Response given: 0

Challenge: How about this compound: CCOc1ccccc1CN1CCN(C2CCC2)CC1CCO (centres undefined)
Response given: 0

Challenge: Same lookup for O=C(O)c1ccc(NC(=O)c2cn(-c3ccccc3)nc2-c2ccc(Cl)cc2)cc1 , please.
Response given: 1

Field: next compound
Challenge: // outcome(item) with item = Cc1ccc(NC(=O)C(C)Sc2nnc(C3CC3)n2C2CC2)cc1S(=O)(=O)N1CCOCC1 (centres undefined)
Response given: 0

* * *

Assay: qHTS for Inhibitors of human tyrosyl-DNA phosphodiesterase 1 (TDP1): qHTS in cells in presence of CPT; further: nearly all actives have a fitted effect of over 55% in size
Details: chicken DT40 Tdp1-/-;hTDP1 cells + 20 nM CPT, ATP luminescence, 48 h; series mostly up to 46.2 µM
Procedure: Human tyrosyl-DNA phosphodiesterase 1 (TDP1) is a novel repair gene, and we propose to use it as a new target for anticancer drug development. […] For the primary screen, Tdp1-/-;hTDP1 cells will be exposed to small molecules in the presence or absence of CPT, and their growth kinetics will be evaluated after 48 hours by measuring ATP activity. […] The hit compounds will then be evaluated in the presence or absence of CPT using Tdp1-/- cells. […]
Out of some 420,000 compounds screened, about 50,000 (12%) were called active. Roughly 26% stayed inconclusive and do not appear here. Calls come from the whole dose curve; as a rule, active = well fitted inhibition curve with a large enough effect; inconclusive = small, poorly fitted or top-dose-only effect; inactive = flat fitted curve, though single readings scatter. The full list was thinned out, with actives kept by preference.
Your answer must be one of the following: active, inactive

Challenge: Call for entry COc1cc(OC)cc(C(=O)NNC(=O)Cc2cccs2)c1 :
Response given: inactive

Challenge: Same question for c1ccc(-c2ccc(OCCN3CCOCC3)cc2)cc1 please.
Response given: inactive

Challenge: One more compound: COc1cccc(OCCCN2CCCCCC2)c1
Response given: inactive

Challenge: Try COc1ccc(C(=O)Nc2ccc(N3CCC(C)CC3)cc2)cc1Br next.
Response given: inactive

Challenge: And what about the compound COc1cccc(-c2sc3ccc(OC)cc3c2-c2ccc(OCCN3CCCCC3)cc2)c1 ?
Response given: active

Continuing:
Challenge: Hi team, can someone confirm the assay call for Cc1ccc(-c2cc(-c3coc4ccccc4c3=O)c3c(n2)-c2cc(Cl)ccc2OC3)cc1 ?
Response given: inactive

Challenge: Also CCC(Cc1ccccc1)NC(=O)C1CCCCC1 (stereo not drawn) , if possible.
Response given: inactive

Challenge: Next compound up: COc1cc(NC(=O)c2ccccc2)c(OC)cc1NC(=O)Cc1ccccc1
Response given: inactive

* * *

experiment: qHTS for Inhibitors of human tyrosyl-DNA phosphodiesterase 1 (TDP1): qHTS in cells in presence of CPT; conditions: chicken DT40 Tdp1-/-;hTDP1 cells + 20 nM CPT, ATP luminescence, 48 h; series mostly up to 46.2 µM; further: nearly all actives have a fitted effect of over 55% in size
Out of some 420,000 compounds screened, about 50,000 (12%) were called active. Not shown: some 26% with an inconclusive outcome. Calls follow the shape of the dose curve; as a rule, active = well fitted inhibition curve with a large enough effect; inconclusive = small, poorly fitted or top-dose-only effect; inactive = flat fitted curve, though single readings scatter. This is one part of a sample in which actives are shown more often than they occur.
Reply using exactly one outcome from t for active, f for inactive

Challenge: Per the records of this test, what outcome belongs to CCOc1cc(CN2CCCC(CO)(Cc3ccc(F)cc3F)C2)ccc1OC (centres undefined) ?
Response given: f

Challenge: Would you kindly repeat that for Cc1ccn(-c2cccc(-n3ccc(C)n3)n2)n1 ?
Response given: f

New cases:
Challenge: I would be grateful if you could indicate the recorded call for COC(=O)/C=C\C(=O)Nc1cccc([N+](=O)[O-])c1 .
Response given: t

Challenge: # iterate: N#C/C(=C(\O)C(F)(F)F)c1nnc2n1CCCCC2
Response given: f

* * *

test: qHTS for Inhibitors of human tyrosyl-DNA phosphodiesterase 1 (TDP1): qHTS in cells in presence of CPT; conditions: chicken DT40 Tdp1-/-;hTDP1 cells + 20 nM CPT, ATP luminescence, 48 h; series mostly up to 46.2 µM; further: nearly all actives have a fitted effect of over 55% in size
The whole screen tested about 420,000 compounds, of which about 50,000 (12%) were called active. About 26% were inconclusive and are not listed. Calls come from the whole dose curve; as a rule, active = well fitted inhibition curve with a large enough effect; inconclusive = small, poorly fitted or top-dose-only effect; inactive = flat fitted curve, though single readings scatter. Many of the other results were omitted from the sample, so actives are more common in it than they were.
Reply using exactly one outcome from yes (1) for active, no (0) for inactive

Before answering, review these 6 worked examples.
Challenge: What was the test verdict on Cc1ccc(C(=O)OCC(=O)N2CCCCCC2)cc1S(=O)(=O)N1CCOCC1 ?
Response given: no (0)

Challenge: Continue with COc1ccc(C(=O)OCC(=O)c2ccc(C)c(S(=O)(=O)N3CCOCC3)c2)cc1OC
Response given: yes (1)

Challenge: How about this molecule: CCOC(=O)c1cnc2c(c(C)nn2CC)c1Cl
Response given: no (0)

Challenge: Now this one: O=C(COC(=O)CCc1ccc(S(=O)(=O)N2CCOCC2)cc1)Nc1cccc(Cl)c1
Response given: no (0)

Challenge: // query: COc1ccccc1-c1cc2nc(C)c(CCC(=O)O)c(C)n2n1
Response given: no (0)

Challenge: Can you handle Cc1ccc2c(c1)N(C(=O)CCC(=O)NCc1cccnc1)CCO2 next?
Response given: no (0)

Others:
Challenge: Identify the outcome logged in this assay for the molecule shown: COc1ccc(CCC(=O)Nc2ccc(Cl)c(S(=O)(=O)N3CCOCC3)c2)cc1OC
Response given: yes (1)

* * *

Assay: qHTS for Inhibitors of human tyrosyl-DNA phosphodiesterase 1 (TDP1): qHTS in cells in presence of CPT; further: nearly all actives have a fitted effect of over 55% in size
Conditions: chicken DT40 Tdp1-/-;hTDP1 cells + 20 nM CPT, ATP luminescence, 48 h; series mostly up to 46.2 µM
Description: Human tyrosyl-DNA phosphodiesterase 1 (TDP1) is a novel repair gene, and we propose to use it as a new target for anticancer drug development. […] For the primary screen, Tdp1-/-;hTDP1 cells will be exposed to small molecules in the presence or absence of CPT, and their growth kinetics will be evaluated after 48 hours by measuring ATP activity. […] The hit compounds will then be evaluated in the presence or absence of CPT using Tdp1-/- cells. […]
Among all 420,000 compounds or so, about 50,000 (12%) were called active. Another 26% or so got no clear call; they are omitted. The call rests on the fitted dose curve; in most records, active means well fitted inhibition curve with a large enough effect; inconclusive means small, poorly fitted or top-dose-only effect; inactive means flat fitted curve, though single readings scatter. This excerpt belongs to a sample that is enriched for actives.
Choose one outcome from this list and give only that: 1 (yes) (active), 0 (no) (inactive)

Challenge: Look up the recorded call for CCOc1ccccc1CNC(=O)c1ccc2c(c1)nc1n2CCC(C)C1 (stereo unspecified) in this test.
Response given: 0 (no)

Challenge: Field entry: CC(=O)c1ccc(NC(=O)Cn2c(=O)oc3ccccc32)cc1
Response given: 0 (no)

Challenge: Record: Cc1cc(S(=O)(=O)NCC(C)C)ccc1OCC(=O)NC1CC1
Response given: 0 (no)

Challenge: One more compound: CC1=C(C)CC2C(=O)N(c3cccc4ccccc34)C(=O)C2C1 (stereo unspecified)
Response given: 1 (yes)

Challenge: And COc1cc2nc(NCC(C)c3ccccc3)n3nc(-c4ccccc4)nc3c2cc1OC (stereo unspecified) ?
Response given: 1 (yes)

Continuing:
Challenge: Please let me know the test result on file for COc1ccc(S(=O)(=O)NC(=O)C2(C)CCN2C(=O)c2ccccc2CCc2ccccc2)cc1 (stereo unspecified) .
Response given: 0 (no)

Challenge: Can you check Cc1occc1-c1nnc(SCC(=O)NC2CCCCC2)o1 next?
Response given: 0 (no)

Challenge: Similarly, Cc1nc(N)nc(Cl)c1CCC1OCCO1 ?
Response given: 0 (no)

Challenge: Entry to check: CSc1ncnc2c1ncn2CCCNCc1cccs1
Response given: 0 (no)

Challenge: One more compound: CC(C)C[C@H](CO)Nc1nc(N(C)c2cccc(Cl)c2)c2ncn(C(C)C)c2n1
Response given: 1 (yes)

Challenge: O=C1c2ccccc2C(=O)N1c1cccc2ccccc12 ?
Response given: 0 (no)
